Assay: soluble on expression in E. coli; label from the status in PepcDB or PDB records
MEASURE: soluble on expression in E. coli

1. MGSDKIHHHHHHMQLLEFPNIAIIAGENAVPVAQLPLVWQDIAKGTANVGLCNPQIYVEMAQLFLYKLEQGDVDLFNERPELAHLKSSFCQLFGQLGRETLEFYGYDFMTHNYPNFEEILREVESKDADYGKVARIGLELFQEFGYELPASFYHVHLAPIYRDHVFEERALRFDKRDIEHKRSWDAILHAGKVFAVQMKVQSIASKYGFTYQHGCGCNSHLSSIDESRGTFAYELSQEKRDRWIRSFIWTAWYEYAFFPIVPNTSYLV    not soluble
2. MVRIRRAGLEDLPGVARVLVDTWRATYRGVVPEAFLEGLSYEGQAERWAQRLKTPTWPGRLFVAESESGEVVGFAAFGPDRASGFPGYTAELWAIYVLPTWQRKGLGRALFHEGARLLQAEGYGRMLVWVLKENPKGRGFYEHLGGVLLGEREIELGGAKLWEVAYGFDLGGHKW    soluble
3. KVSKGLILYPGAKVEIESYAPLARKIAESGYEVVIVKMPLNLAILGTNKAQKVMDSYNNIEHWVIGGHSLGGVAASNFARDNKLIEGVVFLASYPMGDELKELGKKVISIWGSKDGVVNFKSLVESKQKLPDDTTYVEIEGGNHAQFGDYGKQKGDNDAIISQEKQLNITANSIIKFLKNIS    not soluble
4. MGSDKIHHHHHHAPQPTVAVARGKDYARTTRSALALLGGMKRFVKPGDVVVLKPNMGWDRTPAQAANTHPLVVRALAEEALAAGAKRVKVFDRTCNDERRCYVQSGISDALKGMKGVELKFIENERFRRVPIKGAVLPAWELYDEALSADVFINVPVAKHHGLSRLTLGLKNVMGVMGGNRGSIHRHLDDALADINSVLKSHLTVIDATRILTDHGPQGGSPADVKVMDTVIASTDIVAADAYATTLFGLKPEDIPVTVAAHKRGLGEMNLKRVRIVTA    not soluble
5. VSAPDSPALAGMSIGAVLDLLRPDFPDVTISKIRFLEAEGLVTPRRASSGYRRFTAYDCARLRFILTAQRDHYLPLKVIRAQLDAQPDGELPPFGSPYVLPRLVPVAGDSAGGVGSDTASVSLTGIRLSREDLLERSEVADELLTALLKAGVITTGPGGFFDEHAVVILQCARALAEYGVEPRHLRAFRSAADRQSDLIAQIAGPLVKAGKAGARDRADDLAREVAALAITLHTSLIKSAVRDVLHR    soluble
6. MGELANCPKCNALFLKTKLQTVCQACIKEEEKSFETVYKFLRKQENRQSTLSRITEETGVEEELILKFIRQKRIQITHLPNLAYPCERCGTSIREGKFCKACQSDIKDQMDHLNHEDALKIEKENSKKDTYYAYNTKNSLEHHHHHH    soluble
7. HMSMYAVNAGIAKTTVQILVDHIAHSGWLDEAASAVLLDIVRTPISPELKPVGQDGNISQKTEDLVGPYELHDFFIYHFLHNEYKPSKIYYLAGVAFKGIYTKAEIKKWMMVFFRRFFAQQYKRNCMPDGPKVSCISLSPRGAWRMASDASSALWLDEIAKFETD    not soluble

###

Test: soluble on expression in E. coli; label from the status in PepcDB or PDB records
MEASURE: soluble on expression in E. coli

1) GSHMAKEEIIWESLSVDVGSQGNPGIVEYKGVDTKTGEVLFEREPIPIGTNNMGEFLAIVHGLRYLKERNSRKPIYSNSQTAIKWVKDKKAKSTLVRNEETALIWKLVDEAEEWLNTHTYETPILKWQTDKWGEIKADYGRK    soluble
2) MTSYKPEYLIPNLLDLVAEGEGLRIEFKRLIHSAPKIARSITAFANTSGGVILIGVDDDRRIVGIQSEKEALQVIDEAMRFHIEPKPRIEVHFEEFKRRMVLLVDIPKSPERPHFHIEPLIRRDTGKHGVERRVFIRDGSHNKAASDDRIELMLSSREPLKVAFTGRERCLLDWLNEHDRITAEEFADSAGIPMKEARRILVSLVRAGALRLDTANGDNSYTLAHRLEHHHHHH    soluble
3) MGSSHHHHHHSSGLVPRGSHMRQLTEEETKVVFEKLAGYIGRNISFLVDNKELPHVFRLQKDRVYYVPDHVAKLATSVARPNLMSLGICLGKFTKTGKFRLHITSLTVLAKHAKYKIWIKPNGEMPFLYGNHVLKAHVGKMSDDIPEHAGVIVFAMNDVPLGFGVSAKSTSESRNMQPTGIVAFRQADIGEYLRDEDTLFT    soluble

###

Assay: soluble on expression in E. coli; label from the status in PepcDB or PDB records
MEASURE: soluble on expression in E. coli

1. PLEDWPDDVLASLPRGISRHTVRFVNVDGHVFAIKEIGQKAAYHEYKMLRDLNRLGAPSVQPLAVITGRVDATGQPLTPALVTEHLSFSLPYRAVFSQTSVSRSMRPETATR    not soluble
2. MSLDDGTGLFTIGQLARRTGLSVRTIRYWSDEGALPPVTRSSGGYRLYDAGSVARLELIRTLRELGLGLDDVREVLAGETTVAEVAATHVTALDAQIRALKVTRAVLSTVARRGSTAEEMTLMNKLARLSAAERRRILEEFADEMFRGLDTADPVIRERMRNTAVDLPDEPTPEQVDAWVELVELLQDPEFRAQMRAAAEFNAADRGHDSPAGASLWFVRRLVQLAADARQRGEGHHHHHH    not soluble
3. MLHKRFRRYSMLKRYGQIIEVLQKYGFGYIVDQIGLGSFGDFTSRLKKQEKRDEHNLSGPVRTRRILEELGPTYIKLGQLLSMRRDLVPLEYAAEFSKLQDDAPSFGFEEVELIIREELGLPVEDLFESFEKKPLACASIGQVHRAKLKNGDDVVVKVQRPGIKEVIESDLDIMYSLSRLLTEHIPEARLYRPVELVDELSRSILAEIDYSQEGWNTDRFAENFKDSEQIHIPKVYWDYTGLEHHHHHH    not soluble
4. MTDYGDADKYVNDESIEMAWAIKAGERSEVHMNLIMRCDTRVLRLNKHQDAILAAFRSSFPDLNVEEVTTSLLKDGGAKETWREFCEQFKDIVDDYSMGTLMRIHASKAYSPENTVVVPRIIYLAIEMARNVEGVNEKNKEAYTAHRNSLASL    soluble
5. MSLRILITGNMGYIGPVVARHLRQQYPDAWLVGLDRGWFAHCLSDPRQLPEVVLDQQWFGDVRDLTAQQLSGFDGVVHLAAISNDAMGKRFEQVTDAINCRASVAVAQAAAQAGVKHFVFASSCSVYGAAADGTPRSESSAVAPLTAYAHSKIDTERALAQLETDMVITCLRFATACGASPRLRLDLVLNDFVASAVANGTVEVLSDGSPWRPLIHVRDMARAIDWALGRTPLAGGRFLAVNAGAEQWNVQIRDLAQAVGAAMPSATVSISTTAPADNRSYRVDFSLFQRLAPQHQPQQTLQSTITELRDDLLRAGFADGDFRQSSDFIRLRILQQLVDSGALAADLRAEGHHHHHH    soluble
6. MKSGIYQIKNTLNNKVYVGSAKDFEKAWKRHFKDLEKGCHSSIKLQRSFNKHGNVFECSILEEIPYEKDLIIERENFWIKELNSKINGYNIADATFG    soluble
7. MGHHHHHHSHMASRWQNMGTSVRRRSLQHQEQLEDSKELQPVVSHQETSVGALGSLCRQFQRRLPLRAVNLNLRAGPSWKRLETPEPGQQGLQAAARSAKSALGAVSQRIQESCQSGTKWLVETQVKARRRKRGAQKGSGSPTHSLSQKSTRLSGAAPAHSAADPWEKEHHRLSVRMGSHAHPLRRSRREAAFRSPYSSTEPLCSPSESDSDLEPVGAGIQHLQKLSQELDEAIMAEERKQALSDRQGFILKDVYASP    not soluble

###

Assay: soluble on expression in E. coli; label from the status in PepcDB or PDB records
MEASURE: soluble on expression in E. coli

1. GDNDAIYYPVGDVDIERGGPALEVGEEDVLVARSFNEEDYVLDTIAQYPNDPTLGKLTFMIDLKNQQKDQNVADFNGVGKSKLTMSLGYKDGNYPSESQVPIYTSQDVTAKYAVKLRLKGELLVSGDEWMIDYVYAQLASLFQPYPPANFPEVFMCKGGMKLGTFDSFRRTCTFDITYDRSDLSFSQLYFNLFINLAGQKRENRVRLRIDKESYFELYEQSEEM    soluble
2. GNSIASCADEQPHIGNYRLLKTIGKGNFAKVKLARHILTGREVAIKIIDKTQLNPTSLQKLFREVRIMKILNHPNIVKLFEVIETEKTLYLIMEYASGGEVFDYLVAHGRMKEKEARSKFRQIVSAVQYCHQKRIVHRDLKAENLLLDADMNIKIADFGFSNEFTVGGKLDAFCGAPPYAAPELFQGKKYDGPEVDVWSLGVILYTLVSGSLPFDGQNLKELRERVLRGKYRIPFYMSTDCENLLKRFLVLNPIKRGTLEQIMKDRWINAGHEEDELKPFVEPELDISDQKRIDIMVGMGYSQEEIQESLSKMKYDEITATYLLLGRK    soluble
3. MAHHHHHHMAKNDIWTPLESNPDSLYLYSCKLGQSKLKFVDIYGFNNDLLDMIPQPVQAVIFLYPVNDNIVSENNTNDKHNLKENFDNVWFIKQVKIITLCNMNNILPILYVCFNSIELKNNKSIENLHHEFCGQVENRDDILDVDTHFIVFVQIEGKIIELDGRKDHPTVHCFTNGDNFLYDTGKIIQDKFIEKCKDDLRFSALAVIPNDNFDII    soluble
